Molecular target: Phospholipase D1 (Homo sapiens)
Experiment: PLD1 inhibitors in cells, Calu-1 cells, single concentration (AID 602144);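 note: tested at 200 nM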
Conditions: cellular PLD1 activity, stronger effect = lower value
Mark yes only when remaining activity stays strictly below 80%. Values equal to the cut-off are no.

| COMPOUND | CATEGORY |
| --- | --- |
| CN(CCN1CCC(n2c(=O)[nH]c3ccccc32)CC1)C(=O)c1ccc2ccccc2c1 | yes |
| Cn1c(C(=O)NCCN2CCN(c3ccncc3)CC2)cc2ccccc21 | no |
| O=C(NCCN1CCC2(CC1)CNc1ccccc12)c1cnc2ccccc2c1 | no |
| O=C(NCCN1CCC(c2nc3ccccc3[nH]2)CC1)C1CC1c1ccccc1 (stereo not given) | yes |
| C[C@@H](CN1CCC(n2c(=O)[nH]c3cc(I)ccc32)CC1)NC(=O)c1ccc2ccccc2c1 | yes |
| O=C(NCCN1CCC2(CCc3ccccc32)CC1)c1cnc2ccccc2c1 | no |
| O=C(NCCN1CCC2(CC1)CNc1ccccc12)C1CC1c1ccccc1 (stereo not given) | no |
| O=c1[nH]c2ccccc2n1C1CCN(CCNC(=S)Nc2ccccn2)CC1 | no |
| O=C(NCCN1CCC(n2c(=O)[nH]c3ccccc32)CC1)c1cc([N+](=O)[O-])cc([N+](=O)[O-])c1 | yes |
| O=c1[nH]c2ccccc2n1C1CCN(CCNS(=O)(=O)c2cc(Cl)ccc2Cl)CC1 | no |
| O=C(NCCN1CCC(n2c(=O)[nH]c3ccccc32)CC1)c1cccc2ccc3ccccc3c12 | yes |
| O=C(NCCN1CCN(c2ccccn2)CC1)c1ccc(F)cc1 | no |
| C[C@H](CN1CCC2(CC1)CNc1ccccc12)NC(=O)c1ccc2ccccc2c1 | yes |
| O=C(NCCN1CCC(c2nc3ccccc3[nH]2)CC1)c1ccc2ccccc2c1 | no |
| Cc1ccc(C(=O)N[C@@H](C)CN2CCC(n3c(=O)[nH]c4c(F)cccc43)CC2)cc1 | yes |
| Cn1c(C2CCN(CCN)CC2)nc2ccccc21 (tested in a mixture with another compound) | yes |
| O=C(N[C@@H](Cc1ccccc1)CN1CCC(n2c(=O)[nH]c3ccccc32)CC1)c1ccc(F)c(F)c1 | no |
| Cc1ccc(C(=O)N[C@@H](C)CN2CCC(n3c(=O)[nH]c4ccc(F)cc43)CC2)cc1 | yes |
| C[C@@H](CN1CCC(n2c(=O)[nH]c3cc(-c4ccc(C(F)(F)F)cc4)ccc32)CC1)NC(=O)[C@H]1C[C@@H]1c1ccccc1 | yes |
| O=C(c1ccc(Cl)cc1)N1CCC2(CC1)C(=O)NCN2c1ccccc1 | no |
| O=C(CCc1ccc(F)cc1)NCCN1CCC(n2c(=O)[nH]c3ccccc32)CC1 | yes |
| O=C1c2ccccc2C(=O)N1CCCN1CCC(n2c(=O)[nH]c3ccccc32)CC1 | yes |
| Cc1cccc(NC(=S)NCCN2CCC(n3c(=O)[nH]c4ccccc43)CC2)c1 | no |
| C[C@@H](CN1CCC(n2c(=O)[nH]c3cc(-c4ccsc4)ccc32)CC1)NC(=O)[C@H]1C[C@@H]1c1ccccc1 | yes |
| O=C(NCCN1CCC(C(=O)NCC2CC2)CC1)c1ccc2ccccc2c1 | no |
| O=C(NCCN1CCC(n2c(=O)[nH]c3ccccc32)CC1)c1cccc2cccnc12 | yes |
| Cn1c(=O)n(C2CCN(CCNC(=O)c3ccc4ccccc4c3)CC2)c2ccccc21 | yes |
| O=C(NCCN1CCC(n2c(=O)[nH]c3cc(Cl)ccc32)CC1)c1ccc(Cl)cc1 | yes |
| Nc1ccc(C(=O)NCCN2CCC(n3c(=O)[nH]c4ccccc43)CC2)cc1OC(F)(F)F | yes |

====

Reported remaining activity values for a set of compounds
Target: Phospholipase D1 (Homo sapiens)
Assay: PLD1 inhibitors in cells, Calu-1 cells, single concentration (AID 602144);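 note: tested at 200 nM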
Conditions: cellular PLD1 activity, stronger effect = lower value

| COMPOUND | UNITS_SYMBOL | remaining activity |
| --- | --- | --- |
| C[C@@H](CN1CCC2(CNCc3ccccc32)C1)NC(=O)c1ccc2ccccc2c1 (some centres undefined) | % | 95.4 |
| C[C@@H](CN1CCC2(C=Cc3ccccc32)CC1)NC(=O)[C@H]1C[C@@H]1c1ccccc1 | % | 126 |
| O=C(NCCN1CCC(C(=O)NCCc2ccccn2)CC1)c1ccc2ccccc2c1 | % | 101 |
| O=C(NCCN1CCC(n2c(=O)[nH]c3ccccc32)CC1)c1ccccc1-c1ccccc1 | % | 92.1 |
| O=C(NCCN1CCC2(CC1)CNc1ccccc12)c1ccc2ccccc2c1 | % | 43.9 |
| O=C(NCCN1CCC(n2c(=O)[nH]c3ccccc32)CC1)Nc1cccc(F)c1 | % | 20.1 |
| O=C1c2ccccc2C(=O)N1CCCNc1ccc2ccccc2c1 | % | 145 |
| CS(=O)(=O)N1CC2(CCN(CCNC(=O)c3cnc4ccccc4c3)CC2)c2ccccc21 | % | 99.4 |
| C[C@@H](CN1CCC(n2c(=O)[nH]c3cc(Br)ccc32)CC1)NC(=O)c1ccc(F)cc1 | % | 16.1 |
